Molecular target: T1, Rep15, full length (natural N101D variant) (human, UniProt Q6BDI9 1-236, N101D)
T1 sequence: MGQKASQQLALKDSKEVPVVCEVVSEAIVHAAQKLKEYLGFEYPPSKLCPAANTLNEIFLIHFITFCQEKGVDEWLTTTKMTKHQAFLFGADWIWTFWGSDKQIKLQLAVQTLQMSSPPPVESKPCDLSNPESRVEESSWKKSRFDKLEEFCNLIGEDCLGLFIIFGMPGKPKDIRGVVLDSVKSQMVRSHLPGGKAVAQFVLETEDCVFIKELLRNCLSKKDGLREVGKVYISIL
Assay: ITC
OUTCOME MEASURE: Kd (µM)
Please respond with the number in µM and leave the unit unwritten.

Entry under review: Rab27A, purified (natural protein) MSDGDYDYLIKFLALGDSGVGKTSVLYQYTDGKFNSKFITTVGIDFREKRVVYRASGPDGATGRGQRIHLQLWDTAGQERFRSLTTAFFRDAMGFLLLFDLTNEQSFLNVRNWISQLQMHAYCENPDIVLCGNKSDLEDQRVVKEEEAIALAEKYGIPYFETSAANGTNISQAIEMLLDLIMKRMERCVDKSWIPEGVVRSNGHASTDQLSEEKEKGACGC . Reported Kd?
86.2
